Exercise: state measured TGI for each of the molecules provided.
- System: SF-268 CNS
- Test description: NCI tumour cell line growth inhibition, 48 h
Numeric answer only, unit µM assumed.

Find TGI for `CCOc1cccc(/C=N/NC(=O)Cc2ccc(Nc3ccnc(C(F)(F)F)c3)cc2)c1O` on SF-268 CNS and write it down.
32.4

Find TGI for OC(CCN1CCN(CCOC(c2ccc(F)cc2)c2ccc(F)cc2)CC1)c1ccc(Br)cc1 (stereo not given) on SF-268 CNS and write it down.
17.6

Find TGI for `COc1ccc(-c2nn(-c3cccc(Cl)c3)cc2-c2cc(-c3cccs3)no2)cc1` on SF-268 CNS and write it down.
47.1

Find TGI for `Nc1ccc2c(SCC(=O)Nc3ccccc3-c3ccccc3NC(=O)CSc3c4ccccc4nc4cc(N)ccc34)c3ccccc3nc2c1` on SF-268 CNS and write it down.
93.3

----------
- System: DLD-1 colon
- Test description: NCI tumour cell line growth inhibition, 48 h
Measured parameter: TGI

Find TGI for `CC(=O)[O-].O=[N+]([O-])c1ccc([O-])c(C=NCCN=Cc2cc([N+](=O)[O-])ccc2[O-])c1.[Mn+3]` on DLD-1 colon and write it down.
> 100 µM

Find TGI for `BrC(Br)([P+](c1ccccc1)(c1ccccc1)c1ccccc1)[P+](c1ccccc1)(c1ccccc1)c1ccccc1` on DLD-1 colon and write it down.
40.6 µM

Find TGI for `C1=CC=C2NCCSCCNC3=CC=CC=CC3=NCCSCCN=C2C=C1` on DLD-1 colon and write it down.
> 100 µM

Find TGI for `CCOC(=O)c1cc(C(=O)O)c(=O)n2c1[nH]c1ccccc12` on DLD-1 colon and write it down.
> 100 µM

Find TGI for COC(=O)C1=C(C(=O)OC)C(C(=O)OC)C(C(=O)OC)C(C(=O)OC)(C(=O)OC)C(C(=O)OC)=C1C(=O)OC (stereo not given) on DLD-1 colon and write it down.
6.98 µM

Find TGI for `C=CCN(N=O)C(=O)ON1C(=O)CCC1=O` on DLD-1 colon and write it down.
> 100 µM

Find TGI for `O=c1/c(=C/c2ccc3c(c2)OCO3)sc2nnc(Cc3ccccc3)n12` on DLD-1 colon and write it down.
> 100 µM

Find TGI for `CCc1nc2c([nH]1)C(=O)c1ccccc1C2=O` on DLD-1 colon and write it down.
> 100 µM

Find TGI for CCC1(Cl)C(=O)NC(=O)N(C2CC(O)C(CO)O2)C1N=[N+]=[N-] (stereo not given) on DLD-1 colon and write it down.
> 100 µM

Find TGI for `CC12O[Te]34OC1(C)C(C)(O3)C2(C)O4` on DLD-1 colon and write it down.
30.4 µM

----------
- Test system: A498 renal
- Test description: NCI tumour cell line growth inhibition, 48 h
Exercise: state measured log10 of TGI for each of the molecules provided.
The base-10 logarithm of TGI, taken with TGI in µM, is what appears here.

Consider the molecule `COc1ccc2c(c1)-c1nc(=S)n(CCN(C)C)c3ccc([N+](=O)[O-])c(c13)N2` . State its measured log10 of TGI.
1.39

Consider the molecule Cc1ccc2c(C(C[N+](=O)[O-])c3ccco3)c(-c3ccccc3)[nH]c2c1 (stereo unspecified) . State its measured log10 of TGI.
1.87

Consider the molecule `O=C(Nc1nc2ccc(F)cc2s1)c1cccnc1Nc1ccc(Cl)cc1Cl` . State its measured log10 of TGI.
0.84

Consider the molecule COc1cccc(C2CC(=O)Nc3cc4c(cc32)CCC4)c1OC (stereo unspecified) . State its measured log10 of TGI.
1.12

Consider the molecule CCCC/C=C1\CCC(CN2CCCC2)C1=O (stereo unspecified) . State its measured log10 of TGI.
1.45
